tested-target: recombinant TEAD2 protein (218-447, Uniprot ID: Q15562) (Homo sapiens (Human))
Sequence (Q15562 218-447): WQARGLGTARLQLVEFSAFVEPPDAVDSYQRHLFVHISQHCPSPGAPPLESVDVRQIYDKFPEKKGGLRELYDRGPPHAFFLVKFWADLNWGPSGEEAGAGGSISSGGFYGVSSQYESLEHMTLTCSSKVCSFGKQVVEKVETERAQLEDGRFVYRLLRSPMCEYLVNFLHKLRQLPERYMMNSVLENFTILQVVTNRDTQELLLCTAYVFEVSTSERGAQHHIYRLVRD
measurement-description: Thermal shift assay (protein melting point curve), TEAD2
Type: binding
run-conditions: 10 μM TEAD protein, 50 μM test compound
attribute-measured: Δ T m (TEAD2)

Sample records with Δ T m (TEAD2):
>>> print(df.to_string())
                                        smi                             tested_target  attribute_measured  test_result
0  CP(C)(=O)c1ccc(NC23CC(C(F)(F)F)(C2)C3)c(-c2nccc(OC3COC3)n2)c1  recombinant TEAD2 protein (218-447, Uniprot ID: Q15562) (Homo sapiens (Human))       Δ T m (TEAD2)           ++
1  CP(C)(=O)c1ccc(Nc2ccc(C(F)(F)F)cc2)c(-c2csc(OC3COC3)n2)c1  recombinant TEAD2 protein (218-447, Uniprot ID: Q15562) (Homo sapiens (Human))       Δ T m (TEAD2)            +
2  CP(C)(=O)c1ccc(Nc2ccc(Br)cc2)c(-c2nccc(OC3COC3)n2)c1  recombinant TEAD2 protein (218-447, Uniprot ID: Q15562) (Homo sapiens (Human))       Δ T m (TEAD2)           ++
3  CP(C)(=O)c1ccc(NC2CCC(F)(F)CC2)c(-c2nccc(OC3COC3)n2)c1  recombinant TEAD2 protein (218-447, Uniprot ID: Q15562) (Homo sapiens (Human))       Δ T m (TEAD2)            +
4  COCc1cccn(-c2cc(P(C)(C)=O)ccc2NCc2ccc(C(F)(F)F)cc2)c1=O  recombinant TEAD2 protein (218-447, Uniprot ID: Q15562) (Homo sapiens (Human))       Δ T m (TEAD2)            +

Incoming: If you can, please state the reported Δ T m (TEAD2) value of "CP(C)(=O)c1ccc(Nc2ccc(C(F)(F)F)cc2)c(-c2ncn(C3CCOCC3)n2)c1" .
Outgoing: +

Incoming: If you can, please state the reported Δ T m (TEAD2) value of "CP(C)(=O)c1ccc(Nc2ccc(C(F)(F)F)cc2)c(-c2ccn(C3CCOCC3)n2)c1" .
Outgoing: ++
